# System: K-562 leukemia growth, % test/control
# experimentNotes: Anticancer human tumor K-562 cell line growth inhibition;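 note: spheroids exposed to compounds for 7 days; 100% = DMSO vehicle wells and lower values mean fewer viable cells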
# particulars: second compound 0.1 µM; first compound 0.949 µM; active compounds read low; spheroids with HUVEC and MSC
A collection of compounds and their measured viability, T/C
Give the number; % is assumed, so skip it.

Some compounds with recorded viability, T/C:
• CCN(c1cc(-c2ccc(CN3CCOCC3)cc2)cc(C(=O)NCc2c(C)cc(C)[nH]c2=O)c1C)C1CCOCC1 + NC1CC1c1ccc(-c2cccc(O)c2)cc1 = 82.9
• COc1cc(C2c3cc4c(cc3C(OC3OC5COC(C)OC5C(O)C3O)C3COC(=O)C23)OCO4)cc(OC)c1O (stereo not drawn) + NC1CCC(NC2CC2c2ccccc2)CC1 = 13.8

Continue with the compound presented below.
Can you share its viability, T/C? I mean this compound: NS(=O)(=O)OCC1CC(n2ccc3c(NC4CCc5ccccc54)ncnc32)CC1O (stereo not drawn) + NC1CC1c1ccc(-c2cccc(O)c2)cc1
11.2
